Property: double positive events; scope: individual molecules
# assay-text: reduced mouse 2C T cell binding to pMHC/ICAM-1 vesicles – MLPCN validation set, flow cytometry, LFA-1/ICAM-1 modulator project, pilot screen (AID 2523)
# condition-parameters: 2C mouse CD8+ T cells, at 7 µM, stronger effect = lower value; measured here: CD8+/vesicle+ event percentage
# output: bare number, implied unit %

Answered examples (10):
Asked: Determine its reported double positive events: `COc1cc(/C=C/C(=O)CC(=O)/C=C/c2ccc(O)c(OC)c2)ccc1O`
Given back: 61.2

Asked: Recall and state the measured double positive events for `NNC(=O)c1cc(O)c(O)c(O)c1` .
Given back: 59

Asked: Look up double positive events of Cc1ccc2nc(NC3=NC(CC(=O)O)C(=O)N3)nc(C)c2c1 (centres undefined) and report it.
Given back: 65.9

Asked: Identify the reported double positive events for the following entry. `Cc1ccc(-n2cc(CNCCN3CCOC3=O)c(-c3ccc(F)cc3)n2)cc1`
Given back: 59.3

Asked: // fetch double positive events given entry CC(C)C12CN3CC(C(C)C)(CN(C1)C31C(=O)Nc3ccccc31)C2=O (centres undefined)
Given back: 66.4

Asked: Complete the entry with double positive events for `CCCCOc1ccc(C(=O)CCN2CCCCC2)cc1`
Given back: 58.1

Asked: Supply double positive events value. Item: NC(=O)C1CCCNC1 (centres undefined)
Given back: 75.5

Asked: Name the recorded double positive events of the molecule listed here: CN(C)c1ccc(C(CN)c2c[nH]c3ccccc23)cc1 (centres undefined)
Given back: 61.4

Asked: Return value of double positive events for input `O=C(NCCNc1ccc(Cl)cc1[N+](=O)[O-])c1cccnc1` , no commentary.
Given back: 57.5

Asked: Provide one value: measured double positive events of CC(C)Cc1ccc(C(C)C(=O)O)cc1 (centres undefined)
Given back: 59.8

Continue with the next molecule.
Asked: Report double positive events for CN1C2CCC1CC(OC(c1ccccc1)c1ccccc1)C2 (centres undefined)
Given back: 64.3

---

# assay-text: TOR pathway CIT2 reporter hit retest – S. cerevisiae, GFP fusion, cherry picks, mother/daughter gates, confirmation (AID 2274)
# condition-parameters: S. cerevisiae CIT2-GFP strain, flow cytometry, 3 h; measured here: mother cell gate; at 10 µM; stronger effect = higher value
observable: GFP response, % of DMSO (%)
Write the value in % as a bare number.

Use the examples below as a reference point.
Asked: Please report the measured GFP response, % of DMSO for `CC(C)CC(=O)Nc1ccc2oc(-c3ccncc3)nc2c1`
Given back: 107

Asked: Return value of GFP response, % of DMSO for input Cc1ccc(SC(CC(=O)c2ccc(C(C)(C)C)cc2)C(=O)O)cc1 (stereo not drawn) , no commentary.
Given back: 91.8

Others:
Asked: Give me measured GFP response, % of DMSO, please, for this compound: `CN/C(=C/[N+](=O)[O-])NCCSCc1ccc(CN(C)C)o1`
Given back: 99.7

---

Each entry below carries its reported efflux inhibition (fraction of control).
# assay-text: Nile Red efflux blockade in pump-expressing yeast – validation compound set, multiplex, phenotypic, pilot screen (AID 588506);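 note: Nile Red retained in cells so higher fluorescence means more efflux inhibition; 0 = negative control wells and 1 = enniatin B 25 µM full block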
# condition-parameters: S. cerevisiae pump-expressing triplex, Nile Red efflux flow cytometry; at 10 µM; stronger effect = higher value; the pumps come from Candida albicans
Hey, just send me the number, nothing else.

// solved cases for efflux inhibition (fraction of control) follow
Asked: Give the reported efflux inhibition (fraction of control) for this compound. `COc1ccc(CCN2CNc3c(c(=O)n(C)c(=O)n3C)C2)cc1OC`
Given back: 0.04

Asked: Using the record for COc1ccc2[nH]c(CN3CCN(CC(C)C)C(CCO)C3)c(C)c2c1 (stereo not drawn) , state its measured efflux inhibition (fraction of control).
Given back: -0.06

Now for a further compound.
Asked: Using the record for `CC(C)(C)N(Cc1ccccc1)C(=O)c1ccc(Br)o1` , state its measured efflux inhibition (fraction of control).
Given back: 0.04

---

# assay-text: yeast AGP1-GFP level changes, GLN3 branch – cell-based, multiplex flow cytometry, S. cerevisiae, primary screen (AID 1887);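 note: AGP1-GFP fusion strain of S. cerevisiae within a five-strain barcoded multiplex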
# condition-parameters: 3 h, at 10 µM
Inconclusive results are not listed. Activity calls are given as the source filed them.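 The calls were made as follows: active = GFP signal above the screen-wide mean plus 3 SD, that is over about 124.5% of the solvent control; inconclusive = no reading because the compound's own fluorescence disturbed strain identification; inactive = the rest.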
Select the matching outcome among t for active, f for inactive

Below, 8 compounds whose answers are already recorded.
Asked: In this assay, the call recorded for CSCCC(NC(=O)/C(=C/c1ccc2c(c1)OCO2)NC(=O)c1cccc([N+](=O)[O-])c1)C(=O)O (stereo not given) was what?
Given back: f

Asked: # fetch the recorded call for `Nc1ccc2nc(Cc3ccccc3)[nH]c2c1` here
Given back: f

Asked: // param item: NCCCC(N)(C(=O)O)C(F)F (stereo not given) ; yields the recorded call
Given back: f

Asked: I would be grateful if you could indicate the recorded call for NC(CO)C(=O)NNCc1ccc(O)c(O)c1O (stereo not given) .
Given back: f

Asked: Would you mind telling me which call this test gave `O=C(CCSc1ccccc1)N1CCCC1` ?
Given back: f

Asked: Look up the recorded call for `O=[N+]([O-])c1ccc(O)c2ncccc12` in this test.
Given back: t

Asked: Recorded test call requested for Cc1ccc2c(c1)C1CN(C)CCC1N2S(=O)(=O)c1ccc(Oc2ccc([N+](=O)[O-])cc2)cc1 (stereo not given)
Given back: f

Asked: Hey, what did the test say about `O=C(Cc1c[nH]c2ccccc12)OCCOC(=O)Cc1c[nH]c2ccccc12` ?
Given back: f

Next:
Asked: Can you look up the reported call for Cc1cc(=O)oc2cc(OC(C)C(=O)NCC3CCCO3)ccc12 (stereo not given) for me?
Given back: f

Asked: Could you please tell me the result logged for `CC1(C)Cc2ccccc2-c2nc(-c3ccccc3)oc(=O)c21` in this assay?
Given back: f

Asked: What outcome does the record of this test show for `CC1=NS(=O)(=O)c2cc(Cl)ccc2N1` ?
Given back: f

Asked: What did this assay record as the result for `Cc1cnc(N)c2c(=O)oc3ccccc3c12` ?
Given back: f

Asked: Short answer needed: outcome of this test for `CSCC[C@H](NC(=O)NC1CCCC1)C(=O)O` ?
Given back: f

Asked: What outcome does the record of this test show for `CCSC(=O)CCCCCCCCCCCO` ?
Given back: f

Asked: Test call for this compound, please: `N=c1c[n+](N2CCOCC2)[n-]o1`
Given back: f

Asked: Which outcome was entered for the compound CC(CCCC(C)(C)O)NC(=O)c1ccc(OC2CCN(C(=O)C3CC3)CC2)cc1 (stereo not given) in this test?
Given back: f

Asked: // outcome(item) with item = CC(C)[C@H](NC(=O)[C@@H]1CSCN1C(=O)OC(C)(C)C)C(=O)NCC1CCC(C(=O)O)CC1 (stereo not given in full)
Given back: f

Asked: Please indicate how the test categorized `COCCNC(=O)CSc1ccc(Cl)cc1` .
Given back: f

Asked: Look up the recorded call for `N#C/C(=C\c1ccc(O)c(O)c1)C(=O)NCCCc1ccccc1` in this test.
Given back: f

Asked: # lookup: test call for `Cc1cc(=O)[nH]c(=S)[nH]1`
Given back: f

Asked: Call for entry `CC(=O)N[C@@H](CS)C(=O)O` :
Given back: f

Asked: Dear colleague, could you share the recorded outcome for OC(CCCN1CCC(O)(c2ccc(Cl)cc2)CC1)c1ccc(F)cc1 (stereo not given) when you have a moment?
Given back: f

Asked: For CC(C)N(Cc1nccn1C)C(=O)CC1C(=O)NCCN1Cc1ccccc1C(F)(F)F (stereo not given) , what call appears in the results of this test?
Given back: f

Asked: In this assay, the call recorded for `O=C1c2ccccc2C(=O)N1/N=C/c1ccc(Oc2ccc([N+](=O)[O-])cn2)cc1` was what?
Given back: f

Asked: // outcome(item) with item = CC(CCc1ccccc1)NC(=O)/C=C/c1ccccc1 (stereo not given)
Given back: f

Asked: Hi team, can someone confirm the assay call for `Cc1nc2ccccn2c(=O)c1CCN1CCC(C(=O)c2ccc(F)cc2)CC1` ?
Given back: f

Asked: Could you check what this test reported for `NC(N)=NC(N)=Nc1ccc2ccccc2c1` ?
Given back: f

Asked: What did this assay record as the result for `COc1ccc2oc(C)c(C(N)=O)c2c1` ?
Given back: f

Asked: Per the assay record, what outcome was assigned to `O=C(CCCN1C(=O)/C(=C\c2cccc(Br)c2)SC1=S)Nc1cccnc1` ?
Given back: f

Asked: Status in this test for `COc1ccc2nc(C)cc(Nc3ccccc3O)c2c1` ?
Given back: f

Asked: For `Cn1c(=O)[nH]c(=O)c2c1nc(NCc1ccco1)n2CCCc1ccccc1` , which call appears in the assay record?
Given back: f

Asked: Entry O=C(O)C(O)c1ccccc1 (stereo not given) : call = ?
Given back: f

Asked: Test call for this compound, please: CC(=O)OC(C)C[N+](C)(C)C (stereo not given)
Given back: f

Asked: What did the test return for COc1ccccc1N1CCN(CC(O)COc2cccc3ccccc23)CC1 (stereo not given) ?
Given back: f

---

# tgt: Beta-adrenergic receptor kinase 1 (Homo sapiens) (UniProt P25098)
# Sequence (P25098 whole entry, looked up): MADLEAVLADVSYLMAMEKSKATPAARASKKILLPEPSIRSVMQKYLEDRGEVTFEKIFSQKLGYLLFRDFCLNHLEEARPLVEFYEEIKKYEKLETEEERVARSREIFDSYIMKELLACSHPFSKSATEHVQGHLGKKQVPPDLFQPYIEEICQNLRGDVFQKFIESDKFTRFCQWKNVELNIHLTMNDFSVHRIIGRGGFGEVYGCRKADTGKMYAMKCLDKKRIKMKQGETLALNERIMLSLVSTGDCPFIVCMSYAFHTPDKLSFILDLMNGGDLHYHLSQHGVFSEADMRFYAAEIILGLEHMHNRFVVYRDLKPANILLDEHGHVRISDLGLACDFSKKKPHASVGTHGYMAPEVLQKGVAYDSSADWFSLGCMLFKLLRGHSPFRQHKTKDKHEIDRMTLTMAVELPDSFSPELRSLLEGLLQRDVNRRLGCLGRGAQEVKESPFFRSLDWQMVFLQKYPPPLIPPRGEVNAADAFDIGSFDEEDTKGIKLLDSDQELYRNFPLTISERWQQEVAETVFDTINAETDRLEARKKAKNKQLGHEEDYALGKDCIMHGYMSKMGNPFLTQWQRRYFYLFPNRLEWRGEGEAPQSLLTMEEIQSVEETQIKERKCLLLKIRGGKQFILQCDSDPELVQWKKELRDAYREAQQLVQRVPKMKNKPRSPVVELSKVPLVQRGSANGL
# assay-text: GRK2 binders displacing RNA aptamer, biochemical, validation, human GRK2, bead flow cytometry (AID 488806)
# condition-parameters: bead-bound GRK2, FAM-aptamer displacement, at 10 µM, stronger effect = higher value
aptamer binding inhibition: recorded values
Could you give me the number in %? Just the number is fine.

// below: answered compounds
Asked: Please supply the value of reported aptamer binding inhibition for the item `COc1ccc(OC)c(NC2=C(Cl)C(=O)N(Cc3ccccc3)C2=O)c1`
Given back: 0

Asked: Please indicate aptamer binding inhibition recorded for `Cc1ccc(S(=O)(=O)n2ccnc2)cc1C`
Given back: 1

Asked: Specify reported aptamer binding inhibition for the compound shown: CC1(C)CC(=O)C2=C(C1)c1c(ccc3ccccc13)NC2c1ccco1 (configuration not stated)
Given back: 6

Asked: Write down aptamer binding inhibition measured for item `O=C1[C@@H]2CSCN2C(=O)CN1Cc1ccc(F)cc1`
Given back: 2

Asked: Could you please provide reported aptamer binding inhibition for CCOC(=O)C1C2C=CC3(CN(c4ccc(Cl)c(F)c4)C(=O)C13)O2 (configuration not stated) ? Thanks!
Given back: 1

Next:
Asked: Note down aptamer binding inhibition recorded for `COc1cc2nc(-c3ccccc3)nc(N3CCCC3)c2cc1OC`
Given back: 6

Asked: Consider the compound `COc1cc(CC(=O)NCCc2ccc(S(N)(=O)=O)cc2)cc(OC)c1OC` . State its measured aptamer binding inhibition.
Given back: -4

Asked: Give recorded aptamer binding inhibition. `Cc1nonc1CN(C)C(=O)c1ccc(OC2CCN(C(=O)c3cccnc3)CC2)cc1`
Given back: 0

Asked: Look up and state reported aptamer binding inhibition for `CSCC[C@H](NC(=O)OC(C)(C)C)C(=O)N1CCC(C(=O)N[C@@H](C)C(=O)O)CC1`
Given back: 2

Asked: Dear colleague, please send me the reported aptamer binding inhibition for `O=C(NC1CCCCC1)c1cc2nc(-c3ccco3)cc(C(F)(F)F)n2n1` when you can.
Given back: 0

Asked: For the compound `CSc1ccc(/C=N/N2CCN(Cc3ccc(C)cc3C)CC2)cc1` , give its measured aptamer binding inhibition value.
Given back: -2

Asked: Supply reported aptamer binding inhibition belonging to this compound: CN(C)CCOC(=O)C(c1ccccc1)C1(O)CCCC1 (configuration not stated)
Given back: 3

Every entry's value here was drawn from PubChem BioAssay.
